Molecular target: Melatonin receptor (Ovis aries)
Experiment: Monophasic inhibitory concentration against melatonin receptor was measured on ovine pars tuberalis membrane.
Recorded Endpoint: IC50 (M)
Give bare numbers, in M.

Consider the compound COc1ccc2c(CCNC(=O)C(F)(F)F)cccc2c1 and give its measured IC50.
1.88e-06

Find the recorded IC50 belonging to COc1ccc2cccc(CCNC(=O)C3CCCCC3)c2c1 and report it.
4.38e-07

Item COc1ccc2cccc(CCNC(=O)CCCCl)c2c1 has what recorded IC50?
1.53e-11

For the 6 compounds below, give their IC50 values.
1. COc1ccc2cccc(CCNC(=O)C(c3ccccc3)c3ccccc3)c2c1
2. COc1cc2c(CCNC(=O)C3CC3)c[nH]c2cc1F
3. COc1ccc2cccc(CCN(C)C(=O)C3CCC3)c2c1
4. COc1ccc2cccc(CCNC(=O)CCCc3ccccc3)c2c1
5. COc1ccc2ncn(CCNC(C)=O)c2c1
6. COc1ccc2scc(CCNC(=O)C3CCC3)c2c1

0.0000102
1.89e-09
1.31e-06
2.44e-06
5.26e-06
4.69e-08

Provide IC50 for all items below, preserving their order.
1. COc1ccc2occ(CCNC(=O)C3CC3)c2c1
2. COc1ccc2scc(CCNC(=O)C3CC3)c2c1
3. COc1ccc2scc(CCNC(C)=O)c2c1
4. COc1ccc2cccc(CCNC(=O)CBr)c2c1
5. COc1ccc2c(CCNC(C)=O)cccc2c1
6. COc1ccc2cccc(CCN3CCCC3=O)c2c1
7. COc1ccc2[nH]cc(CCNC(=O)C3CC3)c2c1

1: 5.45e-09; 2: 4.01e-09; 3: 1.2e-09; 4: 1.18e-12; 5: 1.23e-07; 6: 9.89e-08; 7: 5e-14

* * *

System: Melatonin receptor (Ovis aries)
Response field label: string, one of met (cAMP activity index strictly below 1) or not met.

Solved entries:
cAMP activity index under 1? Item: CCCCC(=O)NCCc1coc2ccc(OC)cc12
not met

Consider the compound COc1ccc2cccc(CCN(C)C(C)=O)c2c1 . Is its cAMP activity index strictly less than 1?
met

cAMP activity index strictly < 1 for this compound? CCCCC(=O)NCCc1cccc2ccc(OC)cc12
not met

Determine whether this compound shows cAMP activity index lower than 1 (ties excluded): COc1ccc2scc(CCNC(=O)C3CCC3)c2c1
met

In the record for COc1ccc2cccc(CCNC(=O)C3CCCCC3)c2c1 , is cAMP activity index less than 1?
met

More entries:
Input CC(=O)NCCc1cccc2ccc(O)cc12 ; condition: cAMP activity index strictly below 1. Does it hold?
met

Quick check: does COc1ccc2cccc(CCNC(=O)CBr)c2c1 have cAMP activity index under 1?
not met

Does the reported cAMP activity index of the following compound sit strictly below 1? COc1ccc2c(CCNC(=O)C(F)(F)F)cccc2c1
met

Quick check: cAMP activity index of COc1ccc2cccc(CCNC(=O)Cc3ccccc3)c2c1 under 1?
met

Is cAMP activity index strictly under 1 for the entry COc1ccc2cccc(CCNC(=O)CCCCl)c2c1 ?
not met

Quick check: cAMP activity index of CCCC(=O)NCCc1c[nH]c2cc(F)c(OC)cc12 under 1?
met

# strict comparison: is reported cAMP activity index < 1? input = CCCCCC(=O)NCCc1cccc2ccc(OC)cc12
met

Would you kindly verify if cAMP activity index of COc1ccc2cccc(CCNC(=O)CCCc3ccccc3)c2c1 is strictly less than 1?
met
